System: COLO 205
Assay: NCI tumour cell line growth inhibition, 48 h
Calls of active or inactive are those of the source. No stated cut-off is given here; in the data, active = GI50 up to about 1.1 µM and inactive = higher.
# valid calls are active, inactive; nothing else

Before answering, review these 5 worked examples.
Asked: Hi, do you know how Fc1ccc2nc3n(c2c1)C(c1c(Cl)cccc1Cl)SC3 (stereo not given) came out in this test?
Given back: inactive

Asked: And then Nc1ccccc1OCc1cc(=O)c(OCc2ccccc2)co1 , what is it?
Given back: inactive

Asked: And then Clc1ccc(Cl)c(/N=N/c2cc3c4c(c2)CCCN4CCC3)c1 , what is it?
Given back: inactive

Asked: And then OC12CCCCCC1(N1CCOCC1)c1ccccc12 (stereo not given) , what is it?
Given back: inactive

Asked: And then CC1=CC(O)(c2ccc(-c3ccccc3Cl)cc2)OC1=O (stereo not given) , what is it?
Given back: inactive

--- query ---
Asked: Hi, do you know how CC(C)(C)OC(=O)N(CCCCNC(=O)c1ccccc1)CCCNC(=O)c1ccccc1 came out in this test?
Given back: inactive

* * *

Test system: OVCAR-8
Test: NCI tumour cell line growth inhibition, 48 h
Active and inactive are the calls of the source. No stated cut-off is given here; in the data, active = GI50 up to about 1.1 µM and inactive = higher.
# valid calls are 1.0 (active), 0.0 (inactive); nothing else

Before answering, review these 3 worked examples.
Asked: Hi, do you know how CC(=O)OCC1=C(C)C[C@H]([C@@H](COC(C)=O)C2CCC3C4C[C@H]5O[C@]56CC=CC(=O)[C@]6(C)C4CC[C@@]32C)OC1=O (stereo not given in full) came out in this test?
Given back: 1.0

Asked: And then CN(C)C(=S)Nc1nnc(Nc2ccccc2)s1 , what is it?
Given back: 0.0

Asked: And then CCCC(CCC(=O)O)(CCC(=O)O)[N+](=O)[O-] , what is it?
Given back: 0.0

Next:
Asked: Hi, do you know how O=c1c(F)cn2c(=O)n1CCCCCCCn1c(=O)c(F)cn(c1=O)CCCCCCC2 came out in this test?
Given back: 0.0

Asked: And then C/C(CC(=O)Nc1cccc(Cl)c1C)=N\NC(=O)c1ccncc1 , what is it?
Given back: 0.0

* * *

GI50 for assorted compounds
System: COLO 205
Assay: NCI tumour cell line growth inhibition, 48 h
The source made the active and inactive calls. Cut-off read from the data, not from the text of the source: active = GI50 up to about 1.1 µM and inactive = higher.

Asked: Requested read-out: GI50. Entry: O=C(O)/C(Cc1c[nH]nn1)=N\O
Given back: > 100 µM (inactive)

Asked: And then CC(C)N/C(N)=N/C#N , what is it?
Given back: > 100 µM (inactive)

Asked: And then COC(=O)c1nc(Cl)nc(Cl)c1Cl , what is it?
Given back: 18.6 µM (inactive)

Asked: And then CCN(CC)CCCNc1nc(=O)[nH]c(C)c1C(=O)Nc1c2ccccc2nc2ccccc12 , what is it?
Given back: 8.79 µM (inactive)

Asked: And then CNc1nc(OC)c2c(n1)n(C)c[n+]2C , what is it?
Given back: > 100 µM (inactive)

Next:
Asked: Requested read-out: GI50. Entry: Cc1ccc(C(=O)N/N=C(\N=N\c2ccc([N+](=O)[O-])cc2)c2ccc(N(CCC#N)CCC#N)cc2C)cc1
Given back: 50 µM (inactive)

Asked: And then Cc1[nH]c(C)c(CN(C)C)c1CN(C)C , what is it?
Given back: > 100 µM (inactive)

* * *

GI50 for assorted compounds
Test system: SF-268
Experiment: NCI tumour cell line growth inhibition, 48 h
Activity calls are given as the source filed them. No stated cut-off is given here; in the data, active = GI50 up to about 1.1 µM and inactive = higher.

Asked: Requested read-out: GI50. Entry: COC(=O)/C=C/c1cc(OC)c(OC)c(OC)c1
Given back: > 100 µM (inactive)

Asked: And then COC1=CC(=O)C2=C(C1=O)[C@H]1CC[C@]3(C)[C@@H](OC(C)=O)CC[C@H]3[C@@H]1CC2 , what is it?
Given back: 42.1 µM (inactive)

Next:
Asked: Requested read-out: GI50. Entry: C=C1c2nc3ccccc3n2C=C(c2ccc(C)cc2)N1c1ccc(OC)cc1
Given back: > 100 µM (inactive)

Values were extracted from ChEMBL document CHEMBL1201862.
